biological target: HDAC1 (Homo sapiens); test: Test of HDAC activities, HDAC1 Fluorimetric Drug Discovery Assay Kit; format: biochemical; set-up: purchased Enzolifesciences BML-AK511; details: samples at 100, 1000, 10000 nM; 37° C. 60 minutes; fluorescence Ex 390, Em 460; read-out: HDAC inhibitory activities, HDAC1
pIC50: −log10 of the molar value.
RECORDED METRIC: pIC50

Before answering, review these 5 worked examples.
CC1CN(C(=O)N(Cc2ccc(C(=O)NO)cc2)c2ccc(Cl)c(C(F)(F)F)c2)CC(C)O1 (centres unmarked); 5.54
COc1cccc(N2CCN(C(=O)N(Cc3ccc(C(=O)NO)cc3)c3cccc(C(F)(F)F)c3)CC2)c1; 5.30
Cn1ncc2cc(-c3cccc(N(Cc4ccc(C(=O)NO)cc4)C(=O)N4CCCCC4)c3)ccc21; 6.26
O=C(NO)c1ccc(CN(C(=O)N2CCOCC2)c2cccc(OC(F)(F)F)c2)cc1; 6.51
O=C(NO)c1ccc(CN(C(=O)N2CCOCC2)c2ccc(OC(F)(F)F)cc2)cc1; 6.46

(a) O=C(NO)c1ccc(CN(C(=O)N2CCCC2)c2ccccn2)cc1
(b) COc1ccccc1N1CCN(C(=O)N(Cc2ccc(C(=O)NO)cc2)c2ccc(F)c(Cl)c2)CC1
(c) CS(=O)(=O)N1CC=C(c2cccc(N(Cc3ccc(C(=O)NO)cc3)C(=O)N3CCOCC3)c2)CC1
// query Number of compounds to sort: 3. Sort criterion: pIC50, ascending. Ranked list of labels, please, in the requested order.
// result a, b, c

* * *

Target: HDAC 6 (Homo sapiens, UniProt Q9UBN7)
Sequence (Q9UBN7 whole entry): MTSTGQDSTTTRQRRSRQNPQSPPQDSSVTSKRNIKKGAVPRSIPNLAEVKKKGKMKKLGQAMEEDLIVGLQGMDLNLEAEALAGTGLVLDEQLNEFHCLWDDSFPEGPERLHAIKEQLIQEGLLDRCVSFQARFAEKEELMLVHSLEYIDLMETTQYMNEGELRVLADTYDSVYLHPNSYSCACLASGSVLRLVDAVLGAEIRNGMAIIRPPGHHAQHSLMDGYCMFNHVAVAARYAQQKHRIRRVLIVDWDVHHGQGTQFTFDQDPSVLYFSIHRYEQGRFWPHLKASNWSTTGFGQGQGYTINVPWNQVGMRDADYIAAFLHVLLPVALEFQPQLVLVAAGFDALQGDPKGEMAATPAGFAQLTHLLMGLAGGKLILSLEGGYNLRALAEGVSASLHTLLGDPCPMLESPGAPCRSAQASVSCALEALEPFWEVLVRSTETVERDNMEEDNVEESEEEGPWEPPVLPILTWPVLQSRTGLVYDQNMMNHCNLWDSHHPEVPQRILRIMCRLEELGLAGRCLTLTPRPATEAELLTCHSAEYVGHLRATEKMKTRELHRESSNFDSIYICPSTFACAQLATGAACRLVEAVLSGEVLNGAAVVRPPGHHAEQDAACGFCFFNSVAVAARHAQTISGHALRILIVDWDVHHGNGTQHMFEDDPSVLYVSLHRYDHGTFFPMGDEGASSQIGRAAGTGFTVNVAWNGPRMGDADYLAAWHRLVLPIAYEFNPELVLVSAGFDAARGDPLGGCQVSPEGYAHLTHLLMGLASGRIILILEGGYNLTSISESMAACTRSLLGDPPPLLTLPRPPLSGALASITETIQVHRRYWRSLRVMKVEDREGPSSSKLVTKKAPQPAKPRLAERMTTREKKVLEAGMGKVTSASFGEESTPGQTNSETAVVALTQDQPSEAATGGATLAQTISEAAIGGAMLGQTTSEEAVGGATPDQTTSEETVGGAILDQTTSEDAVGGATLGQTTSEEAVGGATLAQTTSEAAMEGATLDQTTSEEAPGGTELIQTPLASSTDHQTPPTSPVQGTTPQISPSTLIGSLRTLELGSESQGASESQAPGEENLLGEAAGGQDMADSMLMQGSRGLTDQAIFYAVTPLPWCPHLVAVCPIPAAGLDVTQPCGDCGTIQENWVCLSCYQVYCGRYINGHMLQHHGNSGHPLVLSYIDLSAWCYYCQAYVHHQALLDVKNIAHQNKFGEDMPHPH
Experiment: Test of HDAC activities, HDAC6 (fluorimetric)
Type: biochemical
Parameters: purchased Calbiochem 382180
Settings: samples at 0.1, 1, 10, 100, 1000 nM; 37° C. 60 minutes; fluorescence Ex 390, Em 460; read-out: HDAC inhibitory activities, HDAC6
Protocol: The HDAC inhibitory activities of test materials were measured using the HDAC1 Fluorimetric Drug Discovery Assay Kit (Enzolifesciences: BML-AK511) and HDAC6 human recombinant (Calbiochem: 382180). In the HDAC1 assay, the samples were treated with concentrations of 100, 1000, and 10000 nM, and in the HDAC6 assay, the samples were treated with concentrations of 0.1, 1, 10, 100, and 1000 nM. […] Then, the fluorescence intensity (Ex 390, Em 460) was measured using the FlexStation 3 (Molecular device).
pIC50: −log10 of the molar value.
RECORDED METRIC: pIC50

O=C(NO)c1ccc(CN(C(=O)N2CCOCC2)c2cccc(-c3cc(C(F)(F)F)cc(C(F)(F)F)c3)c2)cc1 [Compound 398]; 7.49
CN1CC=C(c2cccc(N(Cc3ccc(C(=O)NO)cc3)C(=O)N3CCOCC3)c2)CC1 [Compound 404]; 7.80
CC(C)(C)OC(=O)N1CC=C(c2cccc(N(Cc3ccc(C(=O)NO)cc3)C(=O)N3CCOCC3)c2)CC1 [Compound 405]; 8.52
O=C(NO)c1ccc(CN(C(=O)N2CCC[C@@H]2CO)c2ccc(C(F)(F)F)cc2)cc1 [Compound 522]; 7.96
O=C(NO)c1ccc(CN(C(=O)N2CCCCC2)c2cccc(C(F)(F)F)n2)cc1 [Compound 828]; 7.44
O=C(NO)c1ccc(CN(C(=O)N2CCOCC2)c2ccccc2)cc1 [Compound 279]; 9.00

(P) Cn1ncc2ccc(-c3cccc(N(Cc4ccc(C(=O)NO)cc4)C(=O)N4CCOCC4)c3)cc21 [Compound 254]
(Q) O=C(NO)c1ccc(CN(C(=O)N2CCC2)c2cccc(-c3ccc4c(c3)OCO4)c2)cc1 [Compound 471]
// query Could you kindly indicate whether P or Q has the higher pIC50 value? Lab log: write the label of the selected item as the result.
// result P
(P: 8.70, Q: 7.85)

* * *

Target: UniProt:Q9UBN7
Test: Test of HDAC activities, HDAC6 (fluorimetric)
Format: biochemical
Parameters: purchased Calbiochem 382180
Conditions: samples at 0.1, 1, 10, 100, 1000 nM; 37° C. 60 minutes; fluorescence Ex 390, Em 460; read-out: HDAC inhibitory activities, HDAC6
Description: The HDAC inhibitory activities of test materials were measured using the HDAC1 Fluorimetric Drug Discovery Assay Kit (Enzolifesciences: BML-AK511) and HDAC6 human recombinant (Calbiochem: 382180). In the HDAC1 assay, the samples were treated with concentrations of 100, 1000, and 10000 nM, and in the HDAC6 assay, the samples were treated with concentrations of 0.1, 1, 10, 100, and 1000 nM. […] Then, the fluorescence intensity (Ex 390, Em 460) was measured using the FlexStation 3 (Molecular device).
pIC50: −log10 of the molar value.
RECORDED METRIC: pIC50

O=C(NO)c1ccc(CN(C(=O)N2CCN(c3ccccc3)CC2)c2cccc(C(F)(F)F)c2)cc1 [Compound 717]; 7.62

(a) CC(=O)N1CCN(C(=O)N(Cc2ccc(C(=O)NO)cc2)c2cccc(C(F)(F)F)c2)CC1 [Compound 494]
(b) COc1cc(-c2cccc(N(Cc3ccc(C(=O)NO)cc3)C(=O)N3CCOCC3)c2)cc(OC)c1OC [Compound 400]
// query Could you kindly indicate whether a or b has the higher pIC50 value? Lab log: write the label of the selected item as the result.
// result a
(a: 9.00, b: 8.10)

* * *

biological target: HDAC 5 (Homo sapiens)
Sequence (Q9UQL6 whole entry): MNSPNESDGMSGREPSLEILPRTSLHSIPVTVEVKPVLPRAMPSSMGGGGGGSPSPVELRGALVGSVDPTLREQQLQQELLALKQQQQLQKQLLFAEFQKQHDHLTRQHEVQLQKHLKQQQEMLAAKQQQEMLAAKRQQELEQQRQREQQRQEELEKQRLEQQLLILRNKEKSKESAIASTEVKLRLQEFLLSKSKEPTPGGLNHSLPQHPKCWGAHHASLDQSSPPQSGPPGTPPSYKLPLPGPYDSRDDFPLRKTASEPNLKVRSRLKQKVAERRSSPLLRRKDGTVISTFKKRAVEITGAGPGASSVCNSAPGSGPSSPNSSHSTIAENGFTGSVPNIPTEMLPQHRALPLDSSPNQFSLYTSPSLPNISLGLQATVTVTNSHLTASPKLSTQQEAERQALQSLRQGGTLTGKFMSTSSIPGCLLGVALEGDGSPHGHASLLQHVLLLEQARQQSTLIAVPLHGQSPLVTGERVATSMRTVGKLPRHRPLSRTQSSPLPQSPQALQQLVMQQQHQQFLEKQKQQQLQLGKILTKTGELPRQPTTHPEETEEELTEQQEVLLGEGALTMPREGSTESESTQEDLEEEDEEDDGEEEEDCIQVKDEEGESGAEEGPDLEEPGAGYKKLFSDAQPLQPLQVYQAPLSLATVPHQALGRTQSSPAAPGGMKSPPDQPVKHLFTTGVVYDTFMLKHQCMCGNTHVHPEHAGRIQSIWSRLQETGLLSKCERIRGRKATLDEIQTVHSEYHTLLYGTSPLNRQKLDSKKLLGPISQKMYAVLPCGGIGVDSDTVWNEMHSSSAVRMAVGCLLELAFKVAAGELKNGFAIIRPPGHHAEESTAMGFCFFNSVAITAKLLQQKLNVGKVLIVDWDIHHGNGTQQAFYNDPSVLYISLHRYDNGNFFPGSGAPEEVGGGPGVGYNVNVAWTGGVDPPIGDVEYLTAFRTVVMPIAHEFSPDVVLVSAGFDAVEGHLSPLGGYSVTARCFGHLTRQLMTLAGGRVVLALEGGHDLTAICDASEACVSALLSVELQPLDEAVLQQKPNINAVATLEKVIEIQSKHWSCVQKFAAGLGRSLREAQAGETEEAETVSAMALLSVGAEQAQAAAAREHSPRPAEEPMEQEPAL
RECORDED METRIC: IC50 (µM)
Only the number, expressed in µM, is required.

// query Give recorded IC50 with HDAC 5 (Homo sapiens) for the following compound: O=C(NO)c1ccc(CN(C(=O)N2CCOCC2)c2cccc(Br)c2)cc1
// result 8.27

* * *

target: HDAC 6 (Homo sapiens, UniProt Q9UBN7); assay: Test of HDAC activities, HDAC6 (fluorimetric); type: biochemical; parameters: purchased Calbiochem 382180; conditions: samples at 0.1, 1, 10, 100, 1000 nM; 37° C. 60 minutes; fluorescence Ex 390, Em 460; read-out: HDAC inhibitory activities, HDAC6
pIC50: −log10 of the molar value.
RECORDED METRIC: pIC50

Before answering, review these 4 worked examples.
O=C(NO)c1ccc(CN(C(=O)N2CCOCC2)c2cccc(-c3ccc4c(c3)OCCO4)c2)cc1; 8.15
O=C(NO)c1ccc(CN(C(=O)N2CCOCC2)c2ccc(C(F)(F)F)cc2)cc1; 8.30
O=C(NO)c1ccc(CN(C(=O)N2CCN(C(c3ccccc3)c3ccccc3)CC2)c2cccc(C(F)(F)F)c2)cc1; 6.39
O=C(NO)c1ccc(CN(C(=O)N2CCOCC2)c2cccc(F)c2)cc1; 8.85

(a) CC(C)(F)CN1CCN(C(=O)N(Cc2ccc(C(=O)NO)cc2)c2cccc(C(F)(F)F)c2)CC1
(b) CC1CCN(C(=O)N(Cc2ccc(C(=O)NO)cc2)c2ccc(Cl)c(C(F)(F)F)c2)CC1
(c) Cc1ccc(N(Cc2ccc(C(=O)NO)cc2)C(=O)N2CCN(C)CC2)c(F)c1
(d) O=C(NO)c1ccc(CN(C(=O)N2CCOCC2)c2nc(-c3ccccc3)cs2)cc1
// query Number of molecules to sort: 4. Sort criterion: pIC50, ascending. Ranked list of labels, please, in the requested order.
// result b, a, c, d
(b: 7.70, a: 8.29, c: 8.70, d: 9.00)

(P) O=C(NO)c1ccc(CN(C(=O)N2CCN(Cc3ccccc3)CC2)c2ccc(F)c(Cl)c2)cc1
(Q) O=C(NO)c1ccc(CN(C(=O)N2CCC(O)(c3ccccc3)CC2)c2ccc(C(F)(F)F)cc2)cc1
(R) CCN1[C@H](C)CN(C(=O)N(Cc2ccc(C(=O)NO)cc2)c2cccc(C(F)(F)F)c2)C[C@@H]1C
// query Please give the order of these molecules when sorted by pIC50, largest value leading. Ranked list of labels, please, in the requested order.
// result R, Q, P

(P) CC(C)(O)CN1CCC(c2cccc(N(Cc3ccc(C(=O)NO)cc3)C(=O)N3CCOCC3)c2)CC1
(Q) COc1ccccc1N1CCN(C(=O)N(Cc2ccc(C(=O)NO)cc2)c2ccc(F)c(Cl)c2)CC1
// query // pick min by pIC50: P , Q Lab log: write the label of the selected item as the result.
// result P
(P: 7.55, Q: 7.82)

* * *

target: HDAC1 (Homo sapiens, UniProt Q13547); assay: Test of HDAC activities, HDAC1 Fluorimetric Drug Discovery Assay Kit; type: biochemical; parameters: purchased Enzolifesciences BML-AK511; details: samples at 100, 1000, 10000 nM; 37° C. 60 minutes; fluorescence Ex 390, Em 460; read-out: HDAC inhibitory activities, HDAC1
Sequence (Q13547 whole entry): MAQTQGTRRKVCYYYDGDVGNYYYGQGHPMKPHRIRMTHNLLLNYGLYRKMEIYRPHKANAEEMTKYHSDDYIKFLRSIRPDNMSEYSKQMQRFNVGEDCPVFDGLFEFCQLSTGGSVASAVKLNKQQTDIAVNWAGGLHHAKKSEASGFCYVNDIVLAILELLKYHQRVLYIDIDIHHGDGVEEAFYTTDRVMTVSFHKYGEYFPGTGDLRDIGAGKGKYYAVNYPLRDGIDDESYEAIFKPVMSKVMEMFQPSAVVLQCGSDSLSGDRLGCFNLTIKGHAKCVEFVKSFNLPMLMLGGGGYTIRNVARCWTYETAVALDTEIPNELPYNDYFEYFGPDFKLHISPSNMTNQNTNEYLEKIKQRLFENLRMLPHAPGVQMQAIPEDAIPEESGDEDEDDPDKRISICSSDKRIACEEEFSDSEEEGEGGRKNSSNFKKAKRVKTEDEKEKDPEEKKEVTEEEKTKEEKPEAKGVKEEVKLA
RECORDED METRIC: IC50 (µM)

Before answering, review these 10 worked examples.
O=C(NO)c1ccc(CN(C(=O)N2CCN(CC(=O)N3CCOCC3)CC2)c2ccc(C(F)(F)F)cc2)cc1; 0.545
CC1CN(C(=O)N(Cc2ccc(C(=O)NO)cc2)c2ccccc2OC(F)(F)F)CC(C)O1 (stereo not drawn); 14.9
COc1cccc(N(Cc2ccc(C(=O)NO)cc2)C(=O)N2CCOCC2)c1; 0.68
O=C(NO)c1ccc(CN(C(=O)N2CCOCC2)c2cccc(CF)c2)cc1; 1
O=C(NO)c1ccc(CN(C(=O)N2CCCCC2)c2cccc(-c3ccc4c(c3)OCO4)c2)cc1; 1.93
O=C(NO)c1ccc(CN(C(=O)N2CCOCC2)c2cccc(F)c2F)cc1; 0.585
Cc1cccc(C)c1-c1cccc(N(Cc2ccc(C(=O)NO)cc2)C(=O)N2CCOCC2)c1; 1.79
O=C(NO)c1ccc(CN(C(=O)N2CCN(Cc3ccccc3)CC2)c2ccc(F)c(Cl)c2)cc1; 1.07
O=C(NO)c1ccc(CN(C(=O)N2CCOCC2)c2cccc(-c3ccc4c(c3)OCO4)c2)cc1; 0.19
C[C@@H]1CN(C(=O)N(Cc2ccc(C(=O)NO)cc2)c2cccc(C(F)(F)F)c2)C[C@H](C)N1Cc1ccccc1; 1.6

(I) O=C(NO)c1ccc(CN(C(=O)N2CCC2)c2cccc(-c3ccc4c(c3)OCO4)c2)cc1
(II) CC1CN(C(=O)N(Cc2ccc(C(=O)NO)cc2)c2cccc(C(F)(F)F)c2)CC(C)O1 (stereo not drawn)
// query // pick min by IC50: I , II Lab log: write the label of the selected item as the result.
// result I

# credit: patent US9878986B2
